# credit: patent US20230295310A1

Record form. Attribute: Kd. Fill in for each entry.
molecular target: T1, human CD3e/d (human, UniProt P07766 23-126; P04234 22-105); assay: SPR (Carterra LSA), mAb on chip
T1 construct: Bought soluble protein; also called hCD3e/d; human CD3/ed (Sino CT038-H2508H)
T1 sequence (P07766 23-126, chain 1 of 2): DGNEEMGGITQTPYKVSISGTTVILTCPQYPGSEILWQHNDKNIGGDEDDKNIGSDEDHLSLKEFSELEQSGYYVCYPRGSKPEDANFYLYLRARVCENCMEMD
T1 sequence (P04234 22-105, chain 2 of 2): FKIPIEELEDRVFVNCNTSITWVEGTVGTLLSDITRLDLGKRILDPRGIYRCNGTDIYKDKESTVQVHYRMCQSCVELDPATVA
Your answer should be a plain number; it is taken to be in nM.

Ask: Endpoint output: Kd of mAb 46 (antibody, V domains shown, VH and VL only) VH: EGQLVESGGGLVQPGGSLRLSCVASGFTLSSYTLNWVRQAPGKGLEWVSYISSTSRTIYYSDSVKGRFTISRDNAKNSLYLQMNSLRDEDTALYYCAREDYYDSSGFDYWGQGTLVTVSS VL: AIRMTQSPSSFSASTGDRVTITCRASQGISSYLAWYQQKPGKAPKLLIYTASTLQSGVPSRFSGSGSGTDFTLTIRSLQSEDFATYYCQQYYSYPRTFGQGTKVEIK . Value?
Reply: 240

Ask: Endpoint output: Kd of mAb 85 (antibody, V domains shown, VH and VL only) VH: QVQLVQSGAEVKKPGASVKVSCKASGYTVTGYYMHWVRQAPGQGLEWMGWINPNSGGTNFAQNFQGRVTMTRDTSISTFYMDLNRLRSDDTAVYYCARGGAPVSYWFFDLWGRGTLVTVSS VL: DIQMTQSPSSLSASVGDRVTITCRASQSISRYLNWYQQKPGKAPKVLIYNTSSLKSGVPSRFSGSGSGTDFTLTISSLQPEDFGTFYCQQSHSTPFTFGPGTKVDIK . Value?
Reply: 117

Ask: Endpoint output: Kd of mAb 97 (antibody, V domains shown, VH and VL only) VH: QGQLVESGGGVVQPGRSLRLSCAASGFTFRGYGMHWVRQAPGKGLEWVAIIYYDGKNKYYADSVKGRFTISRDNSKNTLYLQMNNLRVEDTAVYYCARGGGYNWFDPWGQGTLVTVSS VL: DIQMTQSPSSLSASIGDRVTITCRASQSISNYLNWYQQKPGKAPKLLIYSASSLQSGVPSRFSGSGSGTDFTLTISNLQPEDFAIYYCQRSYSPPFTFGPGTKLDIR . Value?
Reply: 16.5

Ask: Endpoint output: Kd of mAb 212 (antibody, V domains shown, VH and VL only) VH: EVQLLESGGGLVQPGGSLRLSCAASGFTFSNYAMNWVRQAPGKGLEWVSAISGSRSNTYYADSVKGRFTISRDNSKNTLYLQMNSLRAEDTGVYYCAKGAYSKYPYYYYMDVWGKGTTVTVSS VL: EIVMTQSPATLSLSPGERATLSCRASQSVSSSYLSWYQQKPGQAPRLLIYGASTRAIGIPARFSGSGSGTDFTLTISSLQAEDFAVYYCQQDDNLPWTFGQGTKVEIK . Value?
Reply: 11

Ask: Endpoint output: Kd of mAb 115 (antibody, V domains shown, VH and VL only) VH: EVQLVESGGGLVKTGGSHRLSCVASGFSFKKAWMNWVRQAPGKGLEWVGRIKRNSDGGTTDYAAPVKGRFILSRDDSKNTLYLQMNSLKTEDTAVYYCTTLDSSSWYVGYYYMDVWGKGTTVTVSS VL: DIQMTQSPSSVSASVGDRVTITCRASQDINNWLAWYQQKPGKAPKILIYTASNLQSGVPSRFSGSGSGTDFTLTISSLQPEDFATYFCQQAHGLPITFGQGTRLEIK . Value?
Reply: 63.8

Ask: Endpoint output: Kd of mAb 51 (antibody, V domains shown, VH and VL only) VH: EVQLVESGGGLVQPGGSLRLSCAASGFTLSSYTMNWVRQAPGKGLEWVSYISSSSRTIYYSDSVKGRFSISRDNAKNSLYLQMNSLRDEDTALYYCAREDYYDSSGFDNWGQGTLVTVSS VL: AIRMTQSPSSFSASTGDRVTITCRASQGISSYLAWYQQKPGKAPKLLIYTASTLQSGVPSRFSGSGSGTDFTLTIRSLQSEDFATYYCQQYYSYPRTFGQGTKVEIK . Value?
Reply: 351

Ask: Endpoint output: Kd of mAb 204 (antibody, V domains shown, VH and VL only) VH: QVQLVESGGGVVQSGRSLRLSCAASGFTFSGYGMHWVRQAPGKGLEWVAIVYYDGKNKYYADSVKGRFTISRDNSKNTLYLQMNSLRAEDTAVYYCVRGEGYNWFDPWGQGTLVTVSS VL: EIVMTQSPATLSVSPGERATLSCRASQSVSSNLAWYQQKPGQVPRLLIYGASTRATGIPARFSGSGSGTQFTLTISSLQSEDFAVYYCQQYNNWPLTFGGGTKVEIK . Value?
Reply: 200

Ask: Endpoint output: Kd of mAb 304 (antibody, V domains shown, VH and VL only) VH: EVQLLESGGGLVQPGGSRRLSCAASGFTFSSYAMSWVRQAPGKGLEWVSVISGRGDNTNYADSVKGRFTISRENSKNILYLQMNSLRAEDTAVYYCAKKYSYYYYYMDVWGKGTTVTVSS VL: SYELTQPLSVSVALGQTARITCGGNNIGSKDVHWYQQKPGQAPVLVIYRDSNRPSGIPERFSGSNSGNTATLTISRAQAGDEADYYCQVWDSRTAVFGGGTQLTAL . Value?
Reply: 120

Ask: Endpoint output: Kd of mAb 68 (antibody, V domains shown, VH and VL only) VH: EVQLVDSGGGLVQPGGSLRLSCSGSGFTFSSYWMSWVRQAPGKGLEWVANIKQDGSQKYYVDSVKGRFTISRDNVKNSLYLQMNSLRVEDTAVYYCARDESSSWYWYFDLWGRGTLVTVSS VL: DIQMTQSPSTLSASVGDRVTLTCRASQNIVKWLAWYQQKPGKAPKLLIYKASSLESGVPSWFSGSGSGTEFTLTINSLQPDDFATYYCQQYYTYSRTFGQGTKVEIK . Value?
Reply: 46.7

Ask: Endpoint output: Kd of mAb 193 (antibody, V domains shown, VH and VL only) VH: QVQLVESGGGVVQPGRSLRLSCAASGFTFSGYGMHWVRQAPGKGLEWVAIIYYNGNNRKYADSVKGRFTISRDNSKNTVSLQMNSLRVEDTAIYYCTRGDGYNWFVTWGQGTLVTVSS VL: EIVMTQSPATLSVSPGERATLSCRASQSVSSNLAWYHQKPGQAPRLLIYGASTRATGIPVRFSGSGSGTEFTLTISSLQSDDFAVYYCQQYNNWPLTFGGGTKVEIK . Value?
Reply: 93
